Where do the numbers come from? From the Biogen ADME set (Fang et al. 2023).

MEASUREMENT_LABEL: MDR1-MDCK efflux ratio

N#Cc1ccnc(Nc2ccc(F)cc2)c1: 0.609
Cc1nnc(NCc2cccnc2)c2ccccc12: 6.54
CN1CCC(n2ncc3[nH]c(-c4ccc5ccccc5c4)nc32)CC1: 13.9
CC(=O)N1CCC[C@H]1C(=O)Nc1cccc(OC(F)F)c1: 1.42
CC(C)(C)c1nnnn1CC(=O)NC12CC3CC(CC(C3)C1)C2: 0.776
Cc1ccc([C@@H]2N[C@@H](Cc3ccccc3)C(=O)N2C)o1: 0.764
CN(C)C1CN(c2nc(-c3cnccn3)nc3sc4c(c23)CCCC4)C1: 1.17
O=C(Nc1ccc2c(c1)OCCCO2)c1cnn(Cc2ccccc2)c1: 0.64
